Biological target: SRPK2 (human) (UniProt P78362)
Sequence (P78362 whole entry, looked up): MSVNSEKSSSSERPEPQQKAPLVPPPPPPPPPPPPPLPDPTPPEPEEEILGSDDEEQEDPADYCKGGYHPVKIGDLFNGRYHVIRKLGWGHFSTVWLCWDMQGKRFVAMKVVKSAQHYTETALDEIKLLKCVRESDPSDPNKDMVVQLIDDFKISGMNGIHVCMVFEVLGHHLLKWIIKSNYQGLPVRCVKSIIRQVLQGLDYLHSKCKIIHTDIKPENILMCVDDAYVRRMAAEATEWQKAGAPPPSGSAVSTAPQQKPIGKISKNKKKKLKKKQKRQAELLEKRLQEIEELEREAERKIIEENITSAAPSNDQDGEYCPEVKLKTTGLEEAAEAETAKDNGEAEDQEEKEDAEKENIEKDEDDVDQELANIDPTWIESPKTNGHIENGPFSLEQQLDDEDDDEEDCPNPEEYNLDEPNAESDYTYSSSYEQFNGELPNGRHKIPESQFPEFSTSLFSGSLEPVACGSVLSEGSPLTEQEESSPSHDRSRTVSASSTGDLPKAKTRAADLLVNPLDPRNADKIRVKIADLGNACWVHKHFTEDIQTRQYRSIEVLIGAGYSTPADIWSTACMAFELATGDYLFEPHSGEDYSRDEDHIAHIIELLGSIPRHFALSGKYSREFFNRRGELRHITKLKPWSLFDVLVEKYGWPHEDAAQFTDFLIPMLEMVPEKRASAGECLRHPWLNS
Assay: radiometric filter-binding kinase assay, Kinase HotSpot
Conditions: compound 0.5 µM; ATP 10 µM
Readout Kind: residual activity (%)
Give just the number in %; leave the unit off.

>>> experimental_value("Cc1ccc(Nc2nccc(N(C)c3ccc4c(C)n(C)nc4c3)n2)cc1S(N)(=O)=O")
104
>>> experimental_value("N#C/C(=C(/N)Sc1ccc(N)cc1)c1ccccc1C(F)(F)F")
99.5

Record c1ccc(-c2n[nH]c3c2oc2ccccc23)cc1 , field residual activity: 95

CCN(CC)CCNC(=O)c1c(C)[nH]c(/C=C2\C(=O)Nc3ccc(F)cc32)c1C has a reported residual activity of 95

The reported value for Nc1ncnc2c1c(-c1ccc(Oc3ccccc3)cc1)cn2C1CCCC1 in terms of residual activity is 93.4

For this molecule ( CC[n+]1c(/C=C/N(C)c2ccccc2)n(-c2ccccc2)c2ccc(-c3nc4ccccc4s3)cc21 ), measured residual activity is 105

response.value for COc1cc2ncnc(Nc3cccc(Cl)c3)c2cc1OC (field: residual activity) = 88.2
